- Protocol Description: inhibitors of TNFa-induced NFkB p65 translocation, primary screen, imaging, HUVEC, MLSMR starter and 10KST1 sets (AID 438);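 note: compound added about 3h40 before a 20 min TNFalpha stimulation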
- Experimental Setup: HUVEC TNFa-induced p65 nuclear translocation; measured here: nuclei count (cytotoxicity indicator), at 2.08 µM
Below, each of the molecules is paired with its reported cell count value.
Just the number, please.

Worked examples follow.
• CCCCSc1nc(N)c(C#N)c(-c2cccs2)c1C#N = 652
• COC(=O)c1ccccc1NC(=O)Cn1ccnc1 = 310
• Cc1cn2c(-c3ccc(Cl)cc3)nnc2s1 = 752

Now examine the next entry.
Ask: Which measured cell count value corresponds to O=C(CCN1C(=O)COc2ccccc21)NCCCN1CCN(c2ccccc2F)CC1 ?
Reply: 660
